Taken from ChEMBL document CHEMBL1759967.

biological target: Inhibitor of nuclear factor kappa-B kinase subunit beta (Homo sapiens, UniProt O14920); assay: Inhibition of human recombinant IKK-beta expressed in insect Sf21 cells using phospho-Ulight-IkappaB-alpha as substrate
Sequence (O14920 whole entry): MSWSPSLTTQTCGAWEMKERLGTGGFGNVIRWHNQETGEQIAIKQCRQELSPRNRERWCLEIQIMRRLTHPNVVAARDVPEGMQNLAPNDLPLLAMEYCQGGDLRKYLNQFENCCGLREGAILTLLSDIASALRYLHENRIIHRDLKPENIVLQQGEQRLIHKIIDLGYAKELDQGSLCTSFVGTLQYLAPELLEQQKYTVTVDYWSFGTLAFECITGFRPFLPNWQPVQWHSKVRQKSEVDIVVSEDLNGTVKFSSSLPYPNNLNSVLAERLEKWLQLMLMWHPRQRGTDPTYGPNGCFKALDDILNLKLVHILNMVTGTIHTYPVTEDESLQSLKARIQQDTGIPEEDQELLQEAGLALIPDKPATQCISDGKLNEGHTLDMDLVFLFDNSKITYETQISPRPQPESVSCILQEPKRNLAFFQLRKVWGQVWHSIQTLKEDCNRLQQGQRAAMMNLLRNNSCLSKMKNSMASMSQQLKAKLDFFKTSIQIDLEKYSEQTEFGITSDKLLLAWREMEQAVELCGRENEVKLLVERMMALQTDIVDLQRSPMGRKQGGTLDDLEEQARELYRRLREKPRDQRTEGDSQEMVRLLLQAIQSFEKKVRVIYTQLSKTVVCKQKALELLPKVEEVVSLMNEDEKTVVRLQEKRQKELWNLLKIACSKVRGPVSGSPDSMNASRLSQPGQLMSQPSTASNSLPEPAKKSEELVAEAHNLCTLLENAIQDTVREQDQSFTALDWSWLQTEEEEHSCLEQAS
reported_metric: pIC50
Just the number, please; pIC50 means minus log10 of the concentration in mol/L.

Query :: Item under review: O=C(N/N=C/c1ccc([N+](=O)[O-])cc1)c1ccc2ccccc2c1 . Reported pIC50?
Result :: 4.70
